Biological target: Ephrin type-B receptor 4 (Homo sapiens, UniProt P54760)
Sequence (P54760 whole entry, the tested form may be a part): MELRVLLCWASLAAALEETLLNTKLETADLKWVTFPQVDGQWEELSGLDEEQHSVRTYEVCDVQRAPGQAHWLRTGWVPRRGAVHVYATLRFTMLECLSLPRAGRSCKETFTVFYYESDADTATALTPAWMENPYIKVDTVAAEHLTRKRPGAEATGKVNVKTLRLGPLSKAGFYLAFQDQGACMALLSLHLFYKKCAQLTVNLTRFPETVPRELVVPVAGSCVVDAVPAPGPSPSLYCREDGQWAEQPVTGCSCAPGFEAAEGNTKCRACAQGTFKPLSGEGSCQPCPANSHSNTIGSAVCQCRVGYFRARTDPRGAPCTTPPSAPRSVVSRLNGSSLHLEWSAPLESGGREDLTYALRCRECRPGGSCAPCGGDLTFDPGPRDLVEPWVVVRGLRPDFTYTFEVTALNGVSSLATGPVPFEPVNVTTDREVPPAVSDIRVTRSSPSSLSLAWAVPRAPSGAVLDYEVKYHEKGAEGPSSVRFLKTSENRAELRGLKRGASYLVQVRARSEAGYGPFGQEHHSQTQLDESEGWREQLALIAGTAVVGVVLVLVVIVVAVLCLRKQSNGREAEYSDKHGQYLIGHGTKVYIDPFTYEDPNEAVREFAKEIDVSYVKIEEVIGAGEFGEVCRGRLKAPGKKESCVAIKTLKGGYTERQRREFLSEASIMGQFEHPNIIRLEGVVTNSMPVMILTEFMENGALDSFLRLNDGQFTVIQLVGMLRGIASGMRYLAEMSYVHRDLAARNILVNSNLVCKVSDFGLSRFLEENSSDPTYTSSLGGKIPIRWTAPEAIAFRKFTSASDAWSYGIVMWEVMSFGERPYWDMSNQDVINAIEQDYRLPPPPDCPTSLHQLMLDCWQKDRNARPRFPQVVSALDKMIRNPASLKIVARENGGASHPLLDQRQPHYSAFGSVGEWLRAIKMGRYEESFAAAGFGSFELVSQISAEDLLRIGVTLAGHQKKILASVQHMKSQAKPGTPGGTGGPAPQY
Assay: Inhibition of recombinant human N-terminal His6-tagged EphB4 kinase domain (E605 to E890 residues) expressed in baculovirus using poly-AEKY as substrate after 150 mins in presence of gamma33P-ATP by liquid scintillation spectrometry
Property: IC50

Worked examples follow.
> print(dat)
                                   molecule        result
1  CC(C)Oc1cc2c(Nc3ccc(Cl)c(Cl)c3)ncnc2cc1OCC1CNCCO1 (centres undefined)     < 0.05 µM
2  COc1cc2c(Nc3ccc(F)c(Cl)c3F)ncnc2cc1OCC1CN(C)C(C)(C)CO1 (centres undefined)     < 0.05 µM
3  CCN1CCN(C(C)=O)CC1COc1cc2ncnc(Nc3ccc(Cl)c(Cl)c3)c2cc1OC (centres undefined)     < 0.05 µM
4  COc1cc2c(Nc3ccc(Cl)c(Cl)c3)ncnc2cc1OCC1CN(C(=O)c2ccoc2)CCO1 (centres undefined)     < 0.05 µM
5  COc1cc2c(Nc3ccc(Br)c(Cl)c3)ncnc2cc1O[C@@H]1CCOC1  0.05 to 1 µM

Provide IC50 for all items below, preserving their order.
1. COc1cc2c(Nc3ccc(Cl)c(Cl)c3)ncnc2cc1OCc1cc(F)cc2c1OCOC2
2. COc1cc2c(Nc3ccc(Br)c(Cl)c3F)ncnc2cc1OC[C@@H]1CN2CCOC[C@H]2CO1
3. CCOc1cc2c(Nc3ccc(Cl)c(Cl)c3)ncnc2cc1OCC1CN(C)CCO1 (centres undefined)
4. COc1cc2c(Nc3ccc(Cl)c(Cl)c3)ncnc2cc1OCC1CN(C(=O)C(C)(C)C)CCO1 (centres undefined)

Reply:
1. 1 to 20 µM
2. < 0.05 µM
3. < 0.05 µM
4. 0.05 to 1 µM

====

Biological target: Receptor tyrosine-protein kinase erbB-2 (Homo sapiens)
Sequence (P04626 whole entry, the tested form may be a part): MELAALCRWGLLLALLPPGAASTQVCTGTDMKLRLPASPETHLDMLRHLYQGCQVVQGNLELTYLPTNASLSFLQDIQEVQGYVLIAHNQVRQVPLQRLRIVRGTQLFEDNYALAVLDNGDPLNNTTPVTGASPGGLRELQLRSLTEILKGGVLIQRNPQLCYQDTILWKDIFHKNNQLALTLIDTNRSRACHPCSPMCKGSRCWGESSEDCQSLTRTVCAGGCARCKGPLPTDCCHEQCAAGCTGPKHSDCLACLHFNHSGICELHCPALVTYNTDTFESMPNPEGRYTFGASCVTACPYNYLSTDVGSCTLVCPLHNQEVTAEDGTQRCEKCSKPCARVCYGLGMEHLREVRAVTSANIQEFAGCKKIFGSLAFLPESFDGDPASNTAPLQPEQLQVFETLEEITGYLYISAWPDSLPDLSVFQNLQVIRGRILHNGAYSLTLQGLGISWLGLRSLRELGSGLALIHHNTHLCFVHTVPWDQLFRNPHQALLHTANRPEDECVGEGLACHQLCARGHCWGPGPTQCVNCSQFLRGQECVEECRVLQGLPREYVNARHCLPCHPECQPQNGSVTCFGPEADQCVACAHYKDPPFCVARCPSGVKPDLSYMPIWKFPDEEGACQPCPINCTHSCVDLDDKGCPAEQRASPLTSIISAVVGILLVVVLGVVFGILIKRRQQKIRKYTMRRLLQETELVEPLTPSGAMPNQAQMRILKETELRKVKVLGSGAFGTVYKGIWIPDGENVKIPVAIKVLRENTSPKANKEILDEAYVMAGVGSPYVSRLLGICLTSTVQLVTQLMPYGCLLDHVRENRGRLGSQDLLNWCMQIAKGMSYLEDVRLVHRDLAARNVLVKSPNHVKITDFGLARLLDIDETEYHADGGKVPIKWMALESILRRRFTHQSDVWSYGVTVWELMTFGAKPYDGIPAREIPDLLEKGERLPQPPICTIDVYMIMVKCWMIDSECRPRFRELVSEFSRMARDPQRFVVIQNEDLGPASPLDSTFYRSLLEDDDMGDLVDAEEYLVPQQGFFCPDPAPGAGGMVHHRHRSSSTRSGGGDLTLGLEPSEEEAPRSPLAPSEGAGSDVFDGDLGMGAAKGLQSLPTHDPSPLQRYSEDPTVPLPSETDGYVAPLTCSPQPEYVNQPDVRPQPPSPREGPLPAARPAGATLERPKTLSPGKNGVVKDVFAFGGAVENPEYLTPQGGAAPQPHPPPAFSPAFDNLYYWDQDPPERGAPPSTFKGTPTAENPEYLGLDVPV
Experiment: Inhibition of recombinant human N-terminal GST His6-tagged thrombin cleavage site-fused ErbB2 kinase domain (Q679 to V1255 residues) expressed in baculovirus infected insect Sf9 cells using biotinylated poly-EY as substrate after 60 mins by alphascreen assay
pIC50: −log10 of the molar value.
I'd be grateful if you could share measured pIC50 for these entries.

> print(dat)
                                   compound                               system.name  property        result
1  CCNC(=NC#N)N1CCOC(COc2cc3ncnc(Nc4ccc(Cl)c(Cl)c4)c3cc2OC)C1 (stereo not drawn)  Receptor tyrosine-protein kinase erbB-2 (Homo sapiens)     pIC50        > 7.30
2  COc1cc2c(Nc3ccc(Br)c(Cl)c3F)ncnc2cc1OC[C@@H]1CN(C)CC(=O)N1  Receptor tyrosine-protein kinase erbB-2 (Homo sapiens)     pIC50  6.00 to 7.30
3  COc1cc2c(Nc3ccc(Cl)c(Cl)c3F)ncnc2cc1OC[C@@H]1CN2CCC[C@H]2CO1  Receptor tyrosine-protein kinase erbB-2 (Homo sapiens)     pIC50  6.00 to 7.30
4  CN/C(=N\C#N)N1CCOC(COc2cc3ncnc(Nc4ccc(Cl)c(C)c4)c3cc2OC)C1 (stereo not drawn)  Receptor tyrosine-protein kinase erbB-2 (Homo sapiens)     pIC50        > 7.30
5  CCCCN1CCOC(COc2cc3ncnc(Nc4ccc(Cl)c(Cl)c4)c3cc2OC)C1 (stereo not drawn)  Receptor tyrosine-protein kinase erbB-2 (Homo sapiens)     pIC50  6.00 to 7.30
6  COc1cc2c(Nc3ccc(Cl)c(Cl)c3)ncnc2cc1OCC1CN(C(=O)C2CCCC2)CCO1 (stereo not drawn)  Receptor tyrosine-protein kinase erbB-2 (Homo sapiens)     pIC50        > 7.30
7  COc1cc2c(Nc3ccc(Cl)c(Cl)c3)ncnc2cc1OC[C@H]1CN2CCC[C@@H]2CO1  Receptor tyrosine-protein kinase erbB-2 (Homo sapiens)     pIC50  6.00 to 7.30
8  COc1cc2c(Nc3ccc(Br)c(Cl)c3)ncnc2cc1OC1CCN(C)C1 (stereo not drawn)  Receptor tyrosine-protein kinase erbB-2 (Homo sapiens)     pIC50  4.70 to 6.00

Provide pIC50 for all items below, preserving their order.
1. COc1cc2c(Nc3ccc(Cl)c(Cl)c3)ncnc2cc1OCC1CN(C)CC(C)(C)O1 (stereo not drawn)
2. COc1cc2c(Nc3ccc(F)c(Cl)c3F)ncnc2cc1OCC1CN(C)C(C)(C)CO1 (stereo not drawn)
3. COc1cc2c(Nc3ccc(Br)c(Cl)c3Cl)ncnc2cc1OC[C@@H]1CO[C@H]2[C@@H]1OC[C@@H]2OC
4. COc1cc2c(Nc3ccc(Cl)c(Cl)c3F)ncnc2cc1OCC1CN(C)C(C)(C)CO1 (stereo not drawn)

Reply:
1. 6.00 to 7.30
2. 6.00 to 7.30
3. 4.70 to 6.00
4. > 7.30

Provide pIC50 for all items below, preserving their order.
1. COc1cc2c(Nc3ccc(Br)c(Cl)c3)ncnc2cc1O[C@H]1CO[C@H]2[C@@H]1OC[C@@H]2N1CCCC1
2. COc1cc2c(Nc3ccc(Cl)c(Cl)c3)ncnc2cc1OC[C@@H]1CN2CCC[C@@H]2CO1
3. COc1cc2c(Nc3ccc(Cl)c(Cl)c3)ncnc2cc1OCCC1CNC(C)(C)CO1 (stereo not drawn)
4. COc1cc2c(Nc3ccc(C)c(Br)c3)ncnc2cc1OCC1CN(C)CCO1 (stereo not drawn)
5. COc1cc2c(Nc3ccc(Cl)c(Cl)c3)ncnc2cc1OCC1CN(C(=O)c2c(C)noc2C)CCO1 (stereo not drawn)

Reply:
1: 4.70 to 6.00; 2: > 7.30; 3: 6.00 to 7.30; 4: 6.00 to 7.30; 5: > 7.30

Ask: For the compound COc1cc2c(Nc3cc(Cl)c(Cl)cc3F)ncnc2cc1OC[C@H]1CN2CCOC[C@H]2CO1 , what pIC50 is on record?
Reply: 6.00 to 7.30

====

Biological target: Vascular endothelial growth factor receptor 2 (Homo sapiens)
Sequence (P35968 whole entry, the tested form may be a part): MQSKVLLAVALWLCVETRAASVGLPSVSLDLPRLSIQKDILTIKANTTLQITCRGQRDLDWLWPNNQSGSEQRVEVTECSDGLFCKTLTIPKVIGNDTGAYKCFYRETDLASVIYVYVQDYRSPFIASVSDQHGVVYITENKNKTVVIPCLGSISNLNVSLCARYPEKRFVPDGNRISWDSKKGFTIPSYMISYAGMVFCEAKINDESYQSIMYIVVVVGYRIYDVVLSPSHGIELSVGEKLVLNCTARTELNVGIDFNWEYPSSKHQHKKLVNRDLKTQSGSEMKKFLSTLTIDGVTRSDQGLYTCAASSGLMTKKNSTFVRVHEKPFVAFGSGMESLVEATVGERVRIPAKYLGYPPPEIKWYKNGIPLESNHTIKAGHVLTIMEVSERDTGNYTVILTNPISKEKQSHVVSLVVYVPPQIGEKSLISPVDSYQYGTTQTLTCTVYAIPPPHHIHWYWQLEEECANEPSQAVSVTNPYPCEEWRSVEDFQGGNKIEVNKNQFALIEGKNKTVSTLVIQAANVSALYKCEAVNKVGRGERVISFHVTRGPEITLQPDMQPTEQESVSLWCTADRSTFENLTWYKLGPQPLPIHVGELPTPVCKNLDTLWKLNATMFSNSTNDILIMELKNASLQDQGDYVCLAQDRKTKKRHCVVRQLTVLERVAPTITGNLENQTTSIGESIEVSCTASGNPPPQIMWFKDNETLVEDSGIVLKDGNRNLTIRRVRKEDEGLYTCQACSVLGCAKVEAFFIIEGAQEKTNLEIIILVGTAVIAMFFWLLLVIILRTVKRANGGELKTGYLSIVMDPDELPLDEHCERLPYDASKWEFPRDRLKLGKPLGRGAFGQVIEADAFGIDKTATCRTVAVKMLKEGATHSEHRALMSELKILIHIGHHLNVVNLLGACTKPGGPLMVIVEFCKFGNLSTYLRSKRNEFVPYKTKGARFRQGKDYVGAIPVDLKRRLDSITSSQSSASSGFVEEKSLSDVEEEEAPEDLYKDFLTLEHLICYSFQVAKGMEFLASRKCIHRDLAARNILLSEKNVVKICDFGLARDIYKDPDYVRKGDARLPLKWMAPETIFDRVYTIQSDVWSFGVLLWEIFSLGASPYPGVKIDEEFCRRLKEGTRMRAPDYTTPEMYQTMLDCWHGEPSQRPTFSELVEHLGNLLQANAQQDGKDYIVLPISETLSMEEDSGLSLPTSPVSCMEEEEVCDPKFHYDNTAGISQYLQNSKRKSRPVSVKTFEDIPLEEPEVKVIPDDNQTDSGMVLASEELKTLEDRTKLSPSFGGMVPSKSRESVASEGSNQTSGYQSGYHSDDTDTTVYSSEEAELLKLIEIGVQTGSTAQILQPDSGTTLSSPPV
Assay: Inhibition of recombinant human N-terminal GST-fused KDR (D807 to V1356 residues) expressed in baculovirus infected […] insect Sf9 cells using poly-EY as substrate after 240 mins by luciferase coupled chemiluminescence assay
I'd be grateful if you could share measured IC50 for these entries.

Worked examples follow.
> print(dat)
                                   compound        result
1  COc1cc2c(Nc3cc(Cl)c(Cl)c(Cl)c3)ncnc2cc1OCC1CN(C)CCO1 (centres undefined)  0.05 to 1 µM
2  COc1cc2c(Nc3ccc(Cl)c(Cl)c3)ncnc2cc1OCC1CN(C2CCC2)CCO1 (centres undefined)     < 0.05 µM
3  CCC1(C)CN(C)CC(COc2cc3ncnc(Nc4ccc(Cl)c(Cl)c4)c3cc2OC)O1 (centres undefined)  0.05 to 1 µM
4  COc1cc2c(Nc3ccc(Cl)c(Cl)c3)ncnc2cc1OCC1CN(C(=O)C2CCCC2)CCO1 (centres undefined)  0.05 to 1 µM
5  COc1cc2c(Nc3ccc(Cl)c(Cl)c3)ncnc2cc1OCC1CN(c2ccncc2)CCO1 (centres undefined)     < 0.05 µM
6  COc1cc2c(Nc3ccc(Br)c(Cl)c3F)ncnc2cc1OCC1CN(C)CCO1 (centres undefined)     < 0.05 µM
7  COc1cc2c(Nc3ccc(N4CCN(C)CC4)cc3)ncnc2cc1O[C@H]1CO[C@H]2[C@@H]1OC[C@@H]2F    1 to 20 µM
8  COc1cc2c(Nc3ccc(Cl)c(Cl)c3)ncnc2cc1OC[C@H]1CN2CCC[C@H]2CO1     < 0.05 µM

Provide IC50 for all items below, preserving their order.
1. CC(C)Oc1cc2c(Nc3ccc(Cl)c(Cl)c3)ncnc2cc1OCC1CN(C)CCO1 (centres undefined)
2. COc1cc2c(Nc3ccc(Cl)c(Cl)c3)ncnc2cc1OCC1CN(CCC2CCCCC2)CCO1 (centres undefined)
3. COc1cc2c(Nc3ccc(Cl)c(Cl)c3)ncnc2cc1OCC1CN(CCCCCCO)CCO1 (centres undefined)
4. CCNC(=NC#N)N1CCOC(COc2cc3ncnc(Nc4ccc(Cl)c(Cl)c4)c3cc2OC)C1 (centres undefined)
5. COc1cc2c(Nc3ccc(Cl)c(Cl)c3)ncnc2cc1OCC1CNCC(C)(C)O1 (centres undefined)
6. CN/C(=N\C#N)N1CCOC(COc2cc3ncnc(Nc4ccc(Cl)c(C)c4)c3cc2OC)C1 (centres undefined)
7. COc1cccc(CC(=O)N2CCOC(COc3cc4ncnc(Nc5ccc(Cl)c(Cl)c5)c4cc3OC)C2)c1 (centres undefined)
8. COc1cc2c(Nc3ccc(Br)c(Cl)c3Cl)ncnc2cc1OCC1CN(C)C(C)(C)CO1 (centres undefined)

Reply:
1: < 0.05 µM; 2: 0.05 to 1 µM; 3: < 0.05 µM; 4: 0.05 to 1 µM; 5: < 0.05 µM; 6: 0.05 to 1 µM; 7: 0.05 to 1 µM; 8: 0.05 to 1 µM
